target: Adenosine receptor A1 (Homo sapiens, UniProt P30542); assay type: cell membranes, CHO, Membrane; conditions: cho; also: in other assays of this panel Not Active means under 50% inhibition at 10 µM;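 also: radioligand binding assay at the adenosine A1 receptor, with DPCPX serving as the labelled ligand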
Sequence (P30542 whole entry): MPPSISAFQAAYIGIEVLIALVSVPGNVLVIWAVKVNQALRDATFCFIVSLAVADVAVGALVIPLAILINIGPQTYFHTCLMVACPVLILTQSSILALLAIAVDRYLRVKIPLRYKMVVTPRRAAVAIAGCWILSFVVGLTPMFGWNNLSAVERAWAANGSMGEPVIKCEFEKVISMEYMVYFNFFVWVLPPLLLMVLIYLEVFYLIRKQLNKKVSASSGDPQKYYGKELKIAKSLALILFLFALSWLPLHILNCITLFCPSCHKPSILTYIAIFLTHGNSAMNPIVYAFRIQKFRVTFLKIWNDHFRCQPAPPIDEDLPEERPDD
RESULT_TYPE: IC50

# COMPOUND, MEASURED_RESULT
records = [
    ("CC(=O)O[C@H]1C(=O)[C@@]2(C)[C@H]([C@H](OC(=O)c3ccccc3)[C@]3(O)C[C@H](OC(=O)[C@H](O)[C@@H](NC(=O)c4ccccc4)c4ccccc4)C(C)=C1C3(C)C)[C@]1(OC(C)=O)CO[C@@H]1C[C@@H]2O [PACLITAXEL]", "Not Active"),
    ("CC(C)Cc1ccc([C@@H](C)C(=O)O)cc1 [(R)-IBUPROPHEN]", "Not Active"),
    ("Cc1ccc(NC(=O)c2ccc(CN3CCN(C)CC3)cc2)cc1Nc1nccc(-c2cccnc2)n1 [IMATINIB]", "Not Active"),
]

----------
Target: Alpha-1A adrenergic receptor (Rattus norvegicus, UniProt P43140)
Sequence (P43140 whole entry): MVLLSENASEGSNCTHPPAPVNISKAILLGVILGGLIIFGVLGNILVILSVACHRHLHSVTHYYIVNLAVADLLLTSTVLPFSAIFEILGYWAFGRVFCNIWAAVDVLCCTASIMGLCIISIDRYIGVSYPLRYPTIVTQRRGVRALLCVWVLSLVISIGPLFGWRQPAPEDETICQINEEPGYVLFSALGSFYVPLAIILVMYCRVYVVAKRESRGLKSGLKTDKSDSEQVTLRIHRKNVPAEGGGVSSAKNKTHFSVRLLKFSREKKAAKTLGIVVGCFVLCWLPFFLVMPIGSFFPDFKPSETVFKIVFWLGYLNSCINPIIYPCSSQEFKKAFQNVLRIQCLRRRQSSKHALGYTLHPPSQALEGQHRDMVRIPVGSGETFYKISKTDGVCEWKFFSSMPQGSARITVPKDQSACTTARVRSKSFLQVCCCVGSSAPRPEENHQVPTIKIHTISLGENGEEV
Assay: DRUGMATRIX: Alpha-1A adrenergic receptor radioligand binding (ligand: prazosin)
Format: cell membranes, Wistar, Submaxillary gland, Membrane
Details: Not Active = under 50% inhibition at 10 µM
RESULT_TYPE: IC50

# MOLECULE, MEASURED_RESULT
data = [
    ("O.O.O.O.O.O.[Cl-].[Cl-].[Sr+2] [STRONTIUM CHLORIDE HEXAHYDRATE]", "Not Active"),
    ("Clc1ccccc1CN1CCc2sccc2C1", "Not Active"),
    ("NCCCC(O)(P(=O)(O)O)P(=O)(O)O", "Not Active"),
    ("CC(=O)O[C@H]1C(=O)[C@@]2(C)[C@H]([C@H](OC(=O)c3ccccc3)[C@]3(O)C[C@H](OC(=O)[C@H](O)[C@@H](NC(=O)c4ccccc4)c4ccccc4)C(C)=C1C3(C)C)[C@]1(OC(C)=O)CO[C@@H]1C[C@@H]2O", "Not Active"),
    ("COC1=C(OC)C(=O)C(CCCCCCCCCCO)=C(C)C1=O", "Not Active"),
]

Q: Any idea what IC50 was measured for COc1cc([C@@H]2c3cc4c(cc3[C@@H](O[C@@H]3O[C@@H]5CO[C@@H](C)O[C@H]5[C@H](O)[C@H]3O)[C@H]3COC(=O)[C@H]23)OCO4)cc(OC)c1O [ETOPOSIDE] ?
Ans: Not Active

Q: Returns the measured IC50 for the input molecule. Input: CC(=O)[C@H]1[C@H](C#N)C[C@H]2[C@@H]3CC=C4C[C@@H](O)CC[C@]4(C)[C@H]3CC[C@@]21C
Ans: Not Active

Q: Field request: IC50 | item: COC(=O)Nc1nc2ccc(C(=O)c3cccs3)cc2[nH]1
Ans: Not Active

Q: # get_value(readout='IC50', item= CCC1(C)CC(=O)NC1=O (stereo unspecified) [ETHOSUXIMIDE] )
Ans: Not Active

Q: Requested read-out: IC50. Entry: CC(C)NNC(=O)c1ccncc1
Ans: Not Active

----------
Molecular target: Androgen receptor (Rattus norvegicus, UniProt P15207); also: in other assays of this panel Not Active means under 50% inhibition at 10 µM
Sequence (P15207 whole entry): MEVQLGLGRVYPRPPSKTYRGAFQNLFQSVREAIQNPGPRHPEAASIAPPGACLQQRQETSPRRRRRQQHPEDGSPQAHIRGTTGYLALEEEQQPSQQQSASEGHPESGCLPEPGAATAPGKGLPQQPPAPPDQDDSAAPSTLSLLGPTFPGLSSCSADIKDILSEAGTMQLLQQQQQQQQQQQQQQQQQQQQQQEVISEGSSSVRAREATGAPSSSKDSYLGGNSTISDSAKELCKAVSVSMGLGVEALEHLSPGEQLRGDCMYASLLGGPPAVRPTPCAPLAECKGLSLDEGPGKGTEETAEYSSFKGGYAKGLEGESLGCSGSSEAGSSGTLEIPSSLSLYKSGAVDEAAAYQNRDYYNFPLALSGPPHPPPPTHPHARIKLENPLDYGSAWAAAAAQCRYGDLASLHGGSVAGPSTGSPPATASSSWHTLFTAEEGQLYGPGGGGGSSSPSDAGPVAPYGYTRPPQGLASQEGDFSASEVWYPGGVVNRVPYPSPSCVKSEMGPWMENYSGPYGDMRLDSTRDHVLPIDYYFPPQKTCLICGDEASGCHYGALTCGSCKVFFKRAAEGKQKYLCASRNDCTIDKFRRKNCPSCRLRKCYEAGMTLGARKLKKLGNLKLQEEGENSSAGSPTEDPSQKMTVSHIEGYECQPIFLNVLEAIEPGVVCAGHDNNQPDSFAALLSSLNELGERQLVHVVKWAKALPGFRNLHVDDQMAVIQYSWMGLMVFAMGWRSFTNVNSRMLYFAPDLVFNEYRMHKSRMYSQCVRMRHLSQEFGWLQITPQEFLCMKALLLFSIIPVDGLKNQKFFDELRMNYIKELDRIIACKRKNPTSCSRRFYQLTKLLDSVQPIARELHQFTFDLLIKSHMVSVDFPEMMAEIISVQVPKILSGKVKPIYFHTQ
RESULT_TYPE: IC50

Worked set:
# COMPOUND, TARGET_DESC, IC50
measured = [
    ("O=c1cnn([C@@H]2O[C@H](CO)[C@@H](O)[C@H]2O)c(=O)[nH]1", "Androgen receptor (Rattus norvegicus, UniProt P15207)", "Not Active"),
    ("Cc1ccc(NC(=O)c2ccc(CN3CCN(C)CC3)cc2)cc1Nc1nccc(-c2cccnc2)n1", "Androgen receptor (Rattus norvegicus, UniProt P15207)", "Not Active"),
    ("CCN(CC)CCOCCC1=CCC2CC1C2(C)C (stereo not drawn)", "Androgen receptor (Rattus norvegicus, UniProt P15207)", "Not Active"),
    ("C[n+]1ccc(-c2cc[n+](C)cc2)cc1.[Cl-].[Cl-] [PARAQUAT DICHLORIDE]", "Androgen receptor (Rattus norvegicus, UniProt P15207)", "Not Active"),
    ("CCN(CC)CCOc1ccc(/C(=C(/Cl)c2ccccc2)c2ccccc2)cc1", "Androgen receptor (Rattus norvegicus, UniProt P15207)", "Not Active"),
    ("CC(=O)O[C@H]1C(=O)[C@@]2(C)[C@H]([C@H](OC(=O)c3ccccc3)[C@]3(O)C[C@H](OC(=O)[C@H](O)[C@@H](NC(=O)c4ccccc4)c4ccccc4)C(C)=C1C3(C)C)[C@]1(OC(C)=O)CO[C@@H]1C[C@@H]2O", "Androgen receptor (Rattus norvegicus, UniProt P15207)", "Not Active"),
    ("CC(c1cc2ccccc2s1)N(O)C(N)=O (stereo not drawn)", "Androgen receptor (Rattus norvegicus, UniProt P15207)", "Not Active"),
    ("NC(=O)N1C(=O)/C(=C(\\O)c2cccs2)c2cc(Cl)ccc21", "Androgen receptor (Rattus norvegicus, UniProt P15207)", "Not Active"),
]

Q: Please tell me: IC50 of COC1=C(OC)C(=O)C(CCCCCCCCCCO)=C(C)C1=O , system Androgen receptor (Rattus norvegicus, UniProt P15207)?; also: in other assays of this panel Not Active means under 50% inhibition at 10 µM
Ans: Not Active

Q: Query for Androgen receptor (Rattus norvegicus, UniProt P15207): what IC50 does the record show for Cc1c(C)c2c(c(C)c1O)CCC(C)(CN1CCN(c3cc(N4CCCC4)nc(N4CCCC4)n3)CC1)O2 (stereo not drawn) ?
Ans: Not Active

Q: Query for Androgen receptor (Rattus norvegicus, UniProt P15207): what IC50 does the record show for Nc1ccc2c3c(cccc13)C(=O)NC2=O ?
Ans: Not Active

Q: Quick check: IC50 on Androgen receptor (Rattus norvegicus, UniProt P15207), item COc1ccc2c3c1O[C@H]1C[C@@H](O)C=C[C@@]31CCN(C)C2 ?
Ans: Not Active

Q: # value lookup — system Androgen receptor (Rattus norvegicus, UniProt P15207), readout IC50, item NC1CCN(c2nc3c(cc2F)c(=O)c(C(=O)O)cn3-c2ccc(F)cc2F)C1 (stereo not drawn); also: in other assays of this panel Not Active means under 50% inhibition at 10 µM
Ans: Not Active

Q: Hi! What's the reported IC50 for CCN1CCC[C@H]1CNC(=O)c1cc(S(N)(=O)=O)ccc1OC [LEVOSULPIRIDE] on Androgen receptor (Rattus norvegicus, UniProt P15207)?
Ans: Not Active

Q: # returns recorded IC50 (system: Androgen receptor (Rattus norvegicus, UniProt P15207)) for O=C(c1ccccc1C(F)(F)F)N1CCC(Cc2ccccc2)CC1; also: in other assays of this panel Not Active means under 50% inhibition at 10 µM
Ans: Not Active

Q: I'm curious: which IC50 was measured for CCC1(CCC(C)C)C(=O)NC(=O)NC1=O tested on Androgen receptor (Rattus norvegicus, UniProt P15207)?; also: in other assays of this panel Not Active means under 50% inhibition at 10 µM
Ans: Not Active

Q: Observed IC50 on Androgen receptor (Rattus norvegicus, UniProt P15207) for CC(=O)Oc1ccc(C(c2ccc(OC(C)=O)cc2)c2ccccn2)cc1 , please.
Ans: Not Active

Q: What reported IC50 corresponds to CN(C)[C@@H]1C(O)=C(C(N)=O)C(=O)[C@@]2(O)C(O)=C3C(=O)c4c(O)ccc(Cl)c4[C@@](C)(O)[C@H]3C[C@@H]12 on Androgen receptor (Rattus norvegicus, UniProt P15207)?
Ans: Not Active

Q: I'm curious: which IC50 was measured for CCCN(CCC)S(=O)(=O)c1ccc(C(=O)O)cc1 tested on Androgen receptor (Rattus norvegicus, UniProt P15207)?; also: in other assays of this panel Not Active means under 50% inhibition at 10 µM
Ans: Not Active

Q: Requested read-out IC50, target or system Androgen receptor (Rattus norvegicus, UniProt P15207), entry O=c1cc(N2CCOCC2)oc2c(-c3ccccc3)cccc12; also: in other assays of this panel Not Active means under 50% inhibition at 10 µM
Ans: Not Active

Q: Kindly state the measured IC50 obtained for CC(C)NNC(=O)c1ccncc1 with Androgen receptor (Rattus norvegicus, UniProt P15207).
Ans: Not Active

Q: Hello, I am looking for reported IC50 with Androgen receptor (Rattus norvegicus, UniProt P15207) for C[C@@H]1O[C@@H](O[C@@H]2C=C3CC[C@@H]4[C@H](CC[C@]5(C)[C@@H](c6ccc(=O)oc6)CC[C@]45O)[C@@]3(C)CC2)[C@H](O)[C@H](O)[C@H]1O . Could you help?
Ans: Not Active

Q: Any idea what IC50 came out for CC(C(=O)O)c1ccc2oc(-c3ccc(Cl)cc3)nc2c1 (stereo not drawn) on Androgen receptor (Rattus norvegicus, UniProt P15207)?
Ans: Not Active

Q: Identify the measured IC50 of O=C1CN=C(c2ccccc2Cl)c2cc([N+](=O)[O-])ccc2N1 for Androgen receptor (Rattus norvegicus, UniProt P15207).
Ans: Not Active

Q: Form field - read-out: IC50; system: Androgen receptor (Rattus norvegicus, UniProt P15207); submitted item: CC(C)c1cccc(C(C)C)c1O; also: in other assays of this panel Not Active means under 50% inhibition at 10 µM
Ans: Not Active

Q: Short answer please: IC50, Androgen receptor (Rattus norvegicus, UniProt P15207), entry C[C@@H]1CC[C@@]2(OC1)O[C@H]1[C@@H](O)[C@H]3[C@@H]4CC[C@H]5C[C@@H](O[C@@H]6O[C@H](CO)[C@H](O[C@@H]7O[C@H](CO)C(O)[C@H](O[C@@H]8OC[C@@H](O)[C@H](O)[C@H]8O)[C@H]7O[C@@H]7O[C@H](CO)[C@H](O)[C@H](O[C@@H]8O[C@H](CO)[C@@H](O)[C@H](O)[C@H]8O)[C@H]7O)[C@H](O)[C@H]6O)[C@H](O)C[C@]5(C)[C@H]4CC[C@]3(C)[C@H]1[C@@H]2C (stereo partly drawn)
Ans: Not Active

Q: Recorded IC50 for OC(CCCN1CCCCC1)(c1ccccc1)c1ccccc1 with Androgen receptor (Rattus norvegicus, UniProt P15207), please?
Ans: Not Active

Q: API: value(readout= IC50, system= Androgen receptor (Rattus norvegicus, UniProt P15207), query= Nc1cc(N2CCCCC2)nc(N)[n+]1[O-] ); also: in other assays of this panel Not Active means under 50% inhibition at 10 µM
Ans: Not Active

Q: Observed IC50 on Androgen receptor (Rattus norvegicus, UniProt P15207) for C[C@@H](CO)NC(=O)[C@@H]1C=C2c3cccc4[nH]cc(c34)C[C@H]2N(C)C1 , please.
Ans: Not Active

Q: Field: IC50 (Androgen receptor (Rattus norvegicus, UniProt P15207)). Entry: COc1c2occc2cc2ccc(=O)oc12
Ans: Not Active

Q: State its IC50 on Androgen receptor (Rattus norvegicus, UniProt P15207): CC(C)NCC(O)COc1cccc2[nH]ccc12 (stereo not drawn)
Ans: Not Active

Q: Could you share what IC50 was measured for CCCCOc1cc(CC2CNC(=O)N2)ccc1OC (stereo not drawn) , tested on Androgen receptor (Rattus norvegicus, UniProt P15207)?; also: in other assays of this panel Not Active means under 50% inhibition at 10 µM
Ans: Not Active

Q: Observed IC50 on Androgen receptor (Rattus norvegicus, UniProt P15207) for O=C1Nc2ccc(Cl)cc2C(c2ccccc2Cl)=NC1O (stereo not drawn) , please.
Ans: Not Active
